# tested target: CD73 (Calu-6 cells) (Homo sapiens)
# Construct: endogenous in cells
# protocol summary: Enzymatic activity detection at the cellular level (Calu-6 cells, AMP substrate, Cell-titer Glo luminescence)
# test parameters: enzymatic IC50 at the Calu-6 cell level, 30 min pre-incubation, 120 min at 37° C.
measured metric: log10(IC50) (log10 of the value in nM)
The figures below represent log10 of IC50, where IC50 is stated in nM.

Completed entries (count: 5):
O=c1[nH]cc(-c2cc([C@H]3C[C@@H]3c3ccccc3)c(Cl)nn2)c(=O)[nH]1
0.11
Cc1nnc(-c2c[nH]c(=O)[nH]c2=O)cc1C1CC1c1ccccc1 (centres unmarked)
1.36
N#Cc1cccc(C2CC2c2cc(-c3c[nH]c(=O)[nH]c3=O)nnc2Cl)c1 (centres unmarked)
0.94
N#Cc1nnc(-c2c[nH]c(=O)[nH]c2=O)cc1C1CC1c1ccccc1 (centres unmarked)
0.77
N#Cc1ccccc1C#C[C@H]1C[C@@H]1c1cc(-c2c[nH]c(=O)[nH]c2=O)nnc1Cl
0.64

Query: Name the recorded log10(IC50) of the compound listed here: `N#Cc1ccc(C#C[C@H]2C[C@@H]2c2cc(-c3c[nH]c(=O)[nH]c3=O)nnc2Cl)nc1`
Result: 0.57

Query: Indicate its recorded log10(IC50); the compound in question is O=c1[nH]cc(-c2cc(C3CC3c3ccc(F)cc3F)c(Cl)nn2)c(=O)[nH]1 (centres unmarked)
Result: 0.66

Query: Retrieve log10(IC50) measured for `C=C(C)c1nnc(-c2c[nH]c(=O)[nH]c2=O)cc1[C@H]1C[C@@H]1CC` and print it.
Result: 2.52

---

# tested target: CD73 (Calu-6 cells) (Homo sapiens)
# Construct: endogenous in cells
# Sequence (P21589 27-549): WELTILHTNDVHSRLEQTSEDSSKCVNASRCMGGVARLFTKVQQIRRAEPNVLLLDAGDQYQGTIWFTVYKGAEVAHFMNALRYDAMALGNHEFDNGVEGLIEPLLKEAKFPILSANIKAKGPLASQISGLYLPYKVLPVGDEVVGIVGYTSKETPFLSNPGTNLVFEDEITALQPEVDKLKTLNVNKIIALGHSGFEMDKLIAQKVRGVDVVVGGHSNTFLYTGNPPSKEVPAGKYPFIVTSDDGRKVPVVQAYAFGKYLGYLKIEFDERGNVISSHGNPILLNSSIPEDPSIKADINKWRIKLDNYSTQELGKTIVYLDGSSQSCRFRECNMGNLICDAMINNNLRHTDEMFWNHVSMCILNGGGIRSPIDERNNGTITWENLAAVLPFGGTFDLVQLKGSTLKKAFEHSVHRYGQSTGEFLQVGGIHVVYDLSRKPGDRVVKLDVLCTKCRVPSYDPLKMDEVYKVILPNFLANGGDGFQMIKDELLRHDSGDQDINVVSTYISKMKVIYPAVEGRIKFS
# protocol summary: Enzymatic activity detection at the cellular level (Calu-6 cells, AMP substrate, Cell-titer Glo luminescence)
# test parameters: enzymatic IC50 at the Calu-6 cell level, 30 min pre-incubation, 120 min at 37° C.
Lab note: anything with IC50 below 4 nM is marked True; values at 4 nM or higher are marked False.

See these solved cases before continuing.
Cc1cc(C)cc(C2CC2c2cc(-c3c[nH]c(=O)[nH]c3=O)nnc2Cl)c1 (centres unmarked) [Compound 63]
False
C=Cc1nnc(-c2c[nH]c(=O)[nH]c2=O)cc1[C@H]1C[C@@H]1CC [Compound 1]
False
N#Cc1ccc(C#C[C@H]2C[C@@H]2c2cc(-c3c[nH]c(=O)[nH]c3=O)nnc2Cl)cc1 [Compound 45]
True
COc1nnc(-c2c[nH]c(=O)[nH]c2=O)cc1[C@H]1C[C@@H]1C#Cc1ccccn1 [Compound 52]
False
O=c1[nH]cc(-c2cc(C3CC3c3cccc(C(F)(F)F)c3)c(Cl)nn2)c(=O)[nH]1 (centres unmarked) [Compound 67]
False

Kindly review the next compound as well.
Query: # strict comparison: is reported IC50 < 4 nM? input = COc1nnc(-c2c[nH]c(=O)[nH]c2=O)cc1C1CC1c1ccccc1 (centres unmarked) [Compound 31]
Result: False

---

# protocol summary: Pharmacokinetic evaluation in mice after intragastric administration (plasma concentration by LC/MS/MS)
# Format: in vivo
# test parameters: mouse, Balb/C female mice, single PO 10 mg/kg
# Tmax listing for each entry below
Quick reminder: number only, in min, skip the unit.

C=C[C@H]1C[C@@H]1c1cc(-c2c[nH]c(=O)[nH]c2=O)nnc1Cl [Compound 13]
30
O=c1[nH]cc(-c2cc([C@H]3C[C@@H]3c3ccccc3)c(Cl)nn2)c(=O)[nH]1 [Compound 57]
30

Now consider the entry below.
Query: Look up and report measured Tmax for this entry: Cc1nnc(-c2c[nH]c(=O)[nH]c2=O)cc1[C@H]1C[C@@H]1C(C)C [Compound D1, reference compound]
Result: 30

---

# tested target: CD73 (Calu-6 cells) (Homo sapiens, UniProt P21589)
# Construct: endogenous in cells
# protocol summary: Enzymatic activity detection at the cellular level (Calu-6 cells, AMP substrate, Cell-titer Glo luminescence)
# test parameters: enzymatic IC50 at the Calu-6 cell level, 30 min pre-incubation, 120 min at 37° C.
Attribute: pIC50
Scale for pIC50: -log10 of concentration given in mol/L; no unit attached.

C=C1CC(c2cc(-c3c[nH]c(=O)[nH]c3=O)nnc2Cl)C1
7.65
O=c1[nH]cc(-c2cc([C@H]3C[C@@H]3c3nc4ccccc4[nH]3)c(Cl)nn2)c(=O)[nH]1
7.63
C=C[C@H]1C[C@@H]1c1cc(-c2c[nH]c(=O)[nH]c2=O)nnc1OC
8.60

Query: Specify the recorded pIC50 for `O=c1[nH]cc(-c2cc([C@H]3C[C@@H]3C#Cc3ccccn3)c(Cl)nn2)c(=O)[nH]1` , system: CD73 (Calu-6 cells) (Homo sapiens, UniProt P21589).
Result: 8.43

Query: State recorded pIC50 with CD73 (Calu-6 cells) (Homo sapiens, UniProt P21589), entry Cc1ccc(C2CC2c2cc(-c3c[nH]c(=O)[nH]c3=O)nnc2Cl)cc1 (stereo not shown) , no comment.
Result: 8.28

---

# tested target: CD73 (Calu-6 cells) (Homo sapiens)
# Construct: endogenous in cells
# protocol summary: Enzymatic activity detection at the cellular level (Calu-6 cells, AMP substrate, Cell-titer Glo luminescence)
# test parameters: enzymatic IC50 at the Calu-6 cell level, 30 min pre-incubation, 120 min at 37° C.
IC50 under 6 nM gets 1.0, anything at or over 6 nM gets 0.0.

These recorded examples may help you get a feel for the data.
COc1nnc(-c2c[nH]c(=O)[nH]c2=O)cc1[C@H]1C[C@@H]1C#Cc1ccccc1
1.0
N#Cc1ccc(C2CC2c2cc(-c3c[nH]c(=O)[nH]c3=O)nnc2C#N)cc1 (centres unmarked)
0.0
O=c1[nH]cc(-c2cc(C3CC3c3ccc(Cl)cc3)c(Cl)nn2)c(=O)[nH]1 (centres unmarked)
1.0
N#Cc1nnc(-c2c[nH]c(=O)[nH]c2=O)cc1[C@H]1C[C@@H]1C#Cc1ccccc1
0.0
COc1nnc(-c2c[nH]c(=O)[nH]c2=O)cc1[C@H]1C[C@@H]1C#Cc1cccnc1
1.0

Query: Hello, is IC50 of the following compound strictly smaller than 6 nM? `O=c1[nH]cc(-c2cc([C@H]3C[C@@H]3C#Cc3ccncc3)c(Cl)nn2)c(=O)[nH]1`
Result: 1.0

Query: Hello, I'm reviewing records and need to know if IC50 of O=C(O)c1cccc(C2CC2c2cc(-c3c[nH]c(=O)[nH]c3=O)nnc2Cl)c1 (centres unmarked) is below 6 nM. Could you check?
Result: 0.0

---

# tested target: CD73 (Calu-6 cells) (Homo sapiens)
# Construct: endogenous in cells
# protocol summary: Enzymatic activity detection at the cellular level (Calu-6 cells, AMP substrate, Cell-titer Glo luminescence)
# test parameters: enzymatic IC50 at the Calu-6 cell level, 30 min pre-incubation, 120 min at 37° C.
Label Satisfied when IC50 is strictly below 7 nM; otherwise label Not satisfied.

Below are worked cases with known answers.
O=c1[nH]cc(-c2cc(C3CC3c3c(F)cc(F)cc3F)c(Cl)nn2)c(=O)[nH]1 (centres unmarked) [Compound 72]
Satisfied
O=c1[nH]cc(-c2cc(C3CC3c3ccccc3)c(Cl)nn2)c(=O)[nH]1 (centres unmarked) [Compound 23]
Satisfied
O=c1[nH]cc(-c2cc([C@H]3C[C@@H]3C#Cc3ccc(F)cc3)c(Cl)nn2)c(=O)[nH]1 [Compound 48]
Satisfied
O=c1[nH]cc(-c2cc(C3CC3c3ccc(-c4ccccc4)cc3)c(Cl)nn2)c(=O)[nH]1 (centres unmarked) [Compound 76]
Not satisfied

Attention now turns to another entry.
Query: Could you please tell me whether IC50 recorded for N#Cc1ccc(/C=C/[C@H]2C[C@@H]2c2cc(-c3c[nH]c(=O)[nH]c3=O)nnc2Cl)cc1 [Compound 17] is less than 7 nM?
Result: Satisfied
